B1: PKD2L1 (parent)
chain: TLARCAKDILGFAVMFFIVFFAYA

- Variants of: B1
- Experiment: protein stability index of a GFP-peptide fusion (GPS, HEK-293T) (PSI 1-6); higher = more stable;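 note: lentivirally expressed fusions sorted by FACS into six bins by GFP to DsRed ratio, PSI derived from sequencing read proportions per bin multiplied by bin number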
- Conditions Used: c terminus: a fixed tail appended
Categories are assigned from the measured protein stability index using these intervals: lower range: < 2; middle range: ≥ 2 and < 3; upper range: ≥ 3

M15I :: upper range
G11P :: lower range
A24N :: middle range
F17H :: upper range
R4W :: upper range
L2Y :: middle range
A22G :: upper range
F20D :: lower range

Into which category would you place "I18H" ?
lower range

Class for "F17A" ?
lower range

Lab log: "A24M" — assign protein stability index category
lower range

Exercise: read the entry "D8E" and state which class it falls under.
middle range

# classify by protein stability index band: "L10Y"
middle range

Place this variant in its band: "I18F"
upper range

Place this variant in its band: "F16I"
lower range

Please indicate the class for "G11E" based on its protein stability index.
upper range

Values from the supplement of paper PMC10567573
